biological target: A1 adenosine receptors (Rattus norvegicus, UniProt P25099); construct: rat cerebral cortex membranes; from tissue; host or cells: rat cerebral cortex membranes; experiment: membrane binding assay at A1 adenosine receptors (Tables 1 and 2); details: Table 2; read-out: Ki (A1(nM))
Sequence (P25099 whole entry): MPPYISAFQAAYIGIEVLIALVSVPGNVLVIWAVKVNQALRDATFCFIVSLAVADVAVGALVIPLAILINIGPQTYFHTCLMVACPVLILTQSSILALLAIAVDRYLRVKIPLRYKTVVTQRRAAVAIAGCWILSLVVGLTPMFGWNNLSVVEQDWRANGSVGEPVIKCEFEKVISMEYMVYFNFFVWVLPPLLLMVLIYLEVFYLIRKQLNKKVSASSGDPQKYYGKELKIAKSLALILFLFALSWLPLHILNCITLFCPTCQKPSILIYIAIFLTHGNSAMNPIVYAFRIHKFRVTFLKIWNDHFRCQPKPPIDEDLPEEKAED
Output TRUE for records whose Ki is lower than 10 nM, FALSE for records at or above 10 nM.

CCCCCCCCCCCCCCCCCC(=O)NCCNC(=O)Cc1ccc(NC(=O)Cc2ccc(Nc3ncnc4c3ncn4[C@@H]3O[C@H](CO)[C@@H](O)[C@H]3O)cc2)cc1 [N-stearoyl-ADAC, Stearoyl-ADAC] :: TRUE
CCCn1c(=O)c2[nH]c(-c3ccc(OCC(=O)NCCNC(=O)CC[C@H](NC(C)=O)C(=O)O)cc3)nc2n(CCC)c1=O [Compound 17, N-Acetyl-glutamic acid (gamma XAC)] :: FALSE
CCCn1c(=O)c2[nH]c(-c3ccc(OCC(=O)NCCNC(=O)CNC(=O)[C@H](Cc4ccc(OC(C)=O)cc4)NC(C)=O)cc3)nc2n(CCC)c1=O [AcTyr(OAc)GlyXAC] :: TRUE

As a next step, examine the molecule that follows.
Req: Identify whether the molecule CCCn1c(=O)c2[nH]c(-c3ccc(OCC(=O)NCCNC(=O)[C@H](CC(C)C)NC(C)=O)cc3)nc2n(CCC)c1=O [AcLeuXAC] records Ki below 10 nM.
Resp: FALSE
